Substrate: Cc1cc(=O)oc2cc(O[C@@H]3OC[C@@H](O)[C@H](O)[C@H]3O)ccc12
Experiment: galactosyltransferase assay, HPLC-UV
Type: biochemical, Homo sapiens
Particulars: apparent, fixed 1 mM UDP-Gal, 10 mM MnCl2, 100 mM sodium cacodylate pH 7.0, 37 °C
From the text: galactosyltransferase assay, HPLC-UV on hβ4GalT7 (GST-β4GalT7)
Where Km equals or exceeds 600 µM, the correct label is Yes; where it does not, the label is No.

Reference set, count: 4
Protein	Label
hβ4GalT7 (GST-β4GalT7) (Homo sapiens; R270K) (protein, truncated soluble form lacking the first 60 N-terminal amino acids (transmembrane domain and part of stem), GST fusion (tag kept), pET-41a(+), E. coli BL21(DE3), glutathione-Sepharose purified) VRGQGQETSGPPRACPPEPPPEHWEEDASWGPHRLAVLVPFRERFEELLVFVPHMRRFLSRKKIRHHIYVLNQVDHFRFNRAALINVGFLESSNSTDYIAMHDVDLLPLNEELDYGFPEAGPFHVASPELHPLYHYKTYVGGILLLSKQHYRLCNGMSNRFWGWGREDDEFYRRIKGAGLQLFRPSGITTGYKTFRHLHDPAWRKRDQKKIAAQKQEQFKVDREGGLNTVKYHVASRTALSVGGAPCTVLNIMLDCDKTATPWCTFS	No
hβ4GalT7 (GST-β4GalT7) (Homo sapiens; H195Q) (protein, truncated soluble form lacking the first 60 N-terminal amino acids (transmembrane domain and part of stem), GST fusion (tag kept), pET-41a(+), E. coli BL21(DE3), glutathione-Sepharose purified) VRGQGQETSGPPRACPPEPPPEHWEEDASWGPHRLAVLVPFRERFEELLVFVPHMRRFLSRKKIRHHIYVLNQVDHFRFNRAALINVGFLESSNSTDYIAMHDVDLLPLNEELDYGFPEAGPFHVASPELHPLYQYKTYVGGILLLSKQHYRLCNGMSNRFWGWGREDDEFYRRIKGAGLQLFRPSGITTGYKTFRHLHDPAWRKRDQKRIAAQKQEQFKVDREGGLNTVKYHVASRTALSVGGAPCTVLNIMLDCDKTATPWCTFS	No
hβ4GalT7 (GST-β4GalT7) (Homo sapiens; H195A) (protein, truncated soluble form lacking the first 60 N-terminal amino acids (transmembrane domain and part of stem), GST fusion (tag kept), pET-41a(+), E. coli BL21(DE3), glutathione-Sepharose purified) VRGQGQETSGPPRACPPEPPPEHWEEDASWGPHRLAVLVPFRERFEELLVFVPHMRRFLSRKKIRHHIYVLNQVDHFRFNRAALINVGFLESSNSTDYIAMHDVDLLPLNEELDYGFPEAGPFHVASPELHPLYAYKTYVGGILLLSKQHYRLCNGMSNRFWGWGREDDEFYRRIKGAGLQLFRPSGITTGYKTFRHLHDPAWRKRDQKRIAAQKQEQFKVDREGGLNTVKYHVASRTALSVGGAPCTVLNIMLDCDKTATPWCTFS	Yes
hβ4GalT7 (GST-β4GalT7) (Homo sapiens; R226A) (protein, truncated soluble form lacking the first 60 N-terminal amino acids (transmembrane domain and part of stem), GST fusion (tag kept), pET-41a(+), E. coli BL21(DE3), glutathione-Sepharose purified) VRGQGQETSGPPRACPPEPPPEHWEEDASWGPHRLAVLVPFRERFEELLVFVPHMRRFLSRKKIRHHIYVLNQVDHFRFNRAALINVGFLESSNSTDYIAMHDVDLLPLNEELDYGFPEAGPFHVASPELHPLYHYKTYVGGILLLSKQHYRLCNGMSNRFWGWGAEDDEFYRRIKGAGLQLFRPSGITTGYKTFRHLHDPAWRKRDQKRIAAQKQEQFKVDREGGLNTVKYHVASRTALSVGGAPCTVLNIMLDCDKTATPWCTFS	No

Here is another protein to look at.
Request: Does Km meet or surpass 600 µM for hβ4GalT7 (GST-β4GalT7) (Homo sapiens) (protein, truncated soluble form lacking the first 60 N-terminal amino acids (transmembrane domain and part of stem), GST fusion (tag kept), pET-41a(+), E. coli BL21(DE3), glutathione-Sepharose purified) VRGQGQETSGPPRACPPEPPPEHWEEDASWGPHRLAVLVPFRERFEELLVFVPHMRRFLSRKKIRHHIYVLNQVDHFRFNRAALINVGFLESSNSTDYIAMHDVDLLPLNEELDYGFPEAGPFHVASPELHPLYHYKTYVGGILLLSKQHYRLCNGMSNRFWGWGREDDEFYRRIKGAGLQLFRPSGITTGYKTFRHLHDPAWRKRDQKRIAAQKQEQFKVDREGGLNTVKYHVASRTALSVGGAPCTVLNIMLDCDKTATPWCTFS ?
Result: No
